# Read-out: Interferon-gamma inducible Protein 10 (IP10), CXCL10 (gene 3627)
# Experiment: BSK_BE3C_IP10: BioMAP Diversity Plus: BE3C Assay for Interferon-gamma inducible Protein 10 (IP10) Biomarker Activity (AID 2283034)
# Recorded Conditions: primary human bronchial epithelial cells; actives raise or lower the signal
Activity calls are given as the source filed them. Rule for the calls: active = hit-call score of the fitted dose curve at least 0.9, where 1 is the maximum; inactive = score below 0.9.
Classes used: label 1 (active), label 0 (inactive)

{"Compound": "C=CC(=O)OCC(C)OCC(C)OCC(C)OC(=O)C=C (stereo not drawn)", "Discrete Label": "label 1"}
{"Compound": "CC/C=C\\CCOC(=O)c1ccccc1O", "Discrete Label": "label 0"}
{"Compound": "CC1(C)CC(O)CC(C)(C)N1[O]", "Discrete Label": "label 0"}
{"Compound": "C1CNCCN1", "Discrete Label": "label 0"}
{"Compound": "Clc1cc(Cl)c(Cl)c(Cl)c1Cl", "Discrete Label": "label 0"}
{"Compound": "Cc1ccc([N+](=O)[O-])cc1N", "Discrete Label": "label 0"}
{"Compound": "CC1=CC=C(C(C)C)CC1", "Discrete Label": "label 0"}
{"Compound": "C=CC(=O)OCCCCCCOC(=O)C=C", "Discrete Label": "label 1"}

src = PubChem BioAssay (EPA / NIEHS)
